- System: HepG2
- ASSAY COMMENT: drug sensitivity score (DSS) for viability; higher = more toxic; extreme values may be limits of the assay
- STATED CONDITIONS: 72 h
READOUT KIND: drug sensitivity score
No unit in the answer, only the number.

Below: 5 molecules and their reported drug sensitivity score.
| MOLECULE | RECORDED MEASUREMENT |
| --- | --- |
| O=C(O)[C@H]1CN(CCCP(=O)(O)O)CCN1 [CPP] | 0 |
| O=C1C2CC=CCC2C(=O)N1SC(Cl)(Cl)Cl (stereo not drawn) [captan] | 3.1 |
| O=c1ncccn1[C@@H]1O[C@H](CO)[C@@H](O)[C@H]1O [zebularine] | 0 |
| CCS(=O)(=O)N1CCN(c2ccc(Nc3ncc(C(N)=O)c(NC4CC4)n3)cc2)CC1 | 4 |
| CCOC(=O)NNc1nncc2ccccc12 [todralazine] | 0 |

Qu. Report drug sensitivity score for `OC[C@H]1O[C@@H](n2cnc3c(N[C@H]4CCC[C@@H]4O)ncnc32)[C@H](O)[C@@H]1O`
Ans. 0

Qu. Output measured drug sensitivity score for this item: CC(=O)NCCc1c(Cc2ccccc2)[nH]c2ccccc12 [luzindole]
Ans. 0

Qu. Provide drug sensitivity score value for the following molecule: CCCCCN(C)CCC(O)(P(=O)(O)O)P(=O)(O)O [ibandronate]
Ans. 0

Qu. Give me measured drug sensitivity score, please, for this molecule: CCC(NC(C)C)C(O)c1ccc(O)c2[nH]c(=O)ccc12 (stereo not drawn) [procaterol]
Ans. 0

Qu. Name the recorded drug sensitivity score of the item OCCNCCCOc1cccc(Cl)c1Cl [2,3-DCPE] in your answer.
Ans. 5.1

###

- Test system: Vero E6
- ASSAY COMMENT: drug sensitivity score (DSS) for viability; higher = more toxic; extreme values may be limits of the assay
- STATED CONDITIONS: 72 h
Where a name gives a salt, the structure may show the parent alone.
READOUT KIND: drug sensitivity score
The answer should be written as a number, with no unit following it.

| COMPOUND | READOUT KIND | RECORDED MEASUREMENT |
| --- | --- | --- |
| O=c1c(-c2ccc(O)cc2)coc2cc(O)cc(O)c12 [genistein] | drug sensitivity score | 0 |

Qu. Param request: drug sensitivity score | system Vero E6 | item C/C1=C/C[C@@H](/C(C)=C/c2csc(C)n2)OC(=O)C[C@H](O)C(C)(C)C(=O)[C@H](C)[C@@H](O)[C@@H](C)CCC1 [epothilone-D]
Ans. 21.5

Qu. Give reported drug sensitivity score for `OC[C@H]1O[C@@H](n2cnc3c(N[C@H]4CCC[C@@H]4O)ncnc32)[C@H](O)[C@@H]1O` (Vero E6)
Ans. 0

Qu. State, for Vero E6, measured drug sensitivity score of the compound listed here: COC(=O)c1ccc(O)cc1 [methylparaben]
Ans. 0

Qu. Supply drug sensitivity score measured with Vero E6 for `CN(C)C(=O)n1nnnc1Cc1ccc(-c2ccccc2)cc1` .
Ans. 3.7

Qu. Look up Vero E6 data: drug sensitivity score of `FC(F)(F)c1ccc(N2CCNCC2)nc1Cl` , then report it.
Ans. 0

Qu. Give Vero E6 drug sensitivity score for the following compound: CN[C@H]1CC[C@@H](c2ccc(Cl)c(Cl)c2)c2ccccc21 [SERTRALINE HYDROCHLORIDE]
Ans. 1.6

Qu. // output drug sensitivity score; input COc1ccc(F)c(F)c1C(=O)c1cnc(NC2CCN(S(C)(=O)=O)CC2)nc1N [R547] ; system Vero E6
Ans. 10.7

Qu. Enter drug sensitivity score (test system Vero E6) for `CN(C(=O)Cc1ccc(Cl)c(Cl)c1)[C@H](CN1CCCC1)c1ccccc1`
Ans. 0

Qu. Find drug sensitivity score for `Cc1c(NC(=O)OC[C@@H]2COCCN2)cn2ncnc(Nc3ccc4c(cnn4Cc4cccc(F)c4)c3)c12` on Vero E6 and write it down.
Ans. 3.5

Qu. Check Vero E6 data and give drug sensitivity score for COc1ccnc2[nH]cc(C(=O)C(=O)N3CCN(C(=O)c4ccccc4)C[C@H]3C)c12 [BMS-806] .
Ans. 0

Qu. System Vero E6. Read-out drug sensitivity score. Item Cc1cc(N)c2ccccc2[n+]1CCCCCCCCCC[n+]1c(C)cc(N)c2ccccc21 [dequalinium] . Report value.
Ans. 0

Qu. Provide drug sensitivity score, tested on Vero E6, for CCCC(=O)Nc1ccc(OCC(O)CNC(C)C)c(C(C)=O)c1 (centres undefined) [acebutolol] .
Ans. 0

Qu. Provide drug sensitivity score, recorded with Vero E6, of C[C@H](Oc1cc(-c2cnn(C3CCNCC3)c2)cnc1N)c1c(Cl)ccc(F)c1Cl [crizotinib-(S)]
Ans. 0.8

###

- System: Calu-3
- ASSAY COMMENT: cell viability relative to DMSO; higher = less toxic
- STATED CONDITIONS: 72 h; 100 nM
READOUT KIND: cell viability (%)
Please give a number only; it is taken to be in %.

| COMPOUND | SYSTEM UNDER TEST | cell viability (%) |
| --- | --- | --- |
| Cc1cccc(Oc2nc3c(C)cccn3c(=O)c2/C=C(\C#N)c2nc3ccccc3s2)c1 | Calu-3 | 98.6 |
| CC(C)N(CC[C@H](c1ccccc1)c1cc(CO)ccc1O)C(C)C [5-hydroxymethyl-tolterodine] | Calu-3 | 96.7 |
| O=C(Nc1cccc(Cl)c1)c1ccccn1 | Calu-3 | 95.9 |
| CCCC(CCC)C(=O)O[C@H]1C[C@H]2CC[C@@H](C1)[N+]2(C)C [anisotropine] | Calu-3 | 93.9 |

Qu. Give cell viability for COc1ccc2c(c1)[C@]13CCCC[C@@H]1[C@H](C2)N(C)CC3 [dextromethorphan]
Ans. 89.6

Qu. Look up cell viability of CN1C[C@H](CNC(=O)OCc2ccccc2)C[C@@H]2c3cccc4c3c(cn4C)C[C@H]21 [metergoline] and report it.
Ans. 101

Qu. Provide cell viability value for the following compound: Cc1cccc(/C=N/Nc2cc(N3CCOCC3)n3nc(-c4ccncc4)cc3n2)c1 [APY0201]
Ans. 87.8

Qu. Given the compound CCN[C@H]1C[C@H](C)S(=O)(=O)c2sc(S(N)(=O)=O)cc21 [dorzolamide] , write its reported cell viability.
Ans. 95.7

Qu. Quick one: give measured cell viability for N#C/C(=C\c1ccc(O)c(O)c1)C(=O)NCc1ccccc1 [AG-490]
Ans. 92.8

###

- System: HepG2
- ASSAY COMMENT: relative viability EC50 (midpoint between 100% and the lowest measured viability); higher = less toxic
- STATED CONDITIONS: 72 h
Quick list: relative viability EC50 per entry.

Qu. Return relative viability EC50 (reported value) for this compound: `C/C1=C/C[C@@H](/C(C)=C/c2csc(C)n2)OC(=O)C[C@H](O)C(C)(C)C(=O)[C@H](C)[C@@H](O)[C@@H](C)CCC1`
Ans. 0.0074 µM

Qu. Given `O=C(Oc1ccc([N+](=O)[O-])cc1)N1CCN(Cc2cccc(Oc3ccccc3)c2)CC1` , respond with its relative viability EC50.
Ans. > 10 µM

###

- Test system: Vero E6
- ASSAY COMMENT: cell viability relative to DMSO; higher = less toxic
- STATED CONDITIONS: 72 h; 100 nM
READOUT KIND: cell viability (%)
Unit % implied. Number only.

| COMPOUND | SYSTEM UNDER TEST | UNIT NAME | cell viability |
| --- | --- | --- | --- |
| CNCC(=O)O | Vero E6 | % | 90.4 |
| Cc1cc([N+](=O)[O-])ccc1NS(=O)(=O)c1cc(Cl)ccc1Cl | Vero E6 | % | 94.1 |
| Oc1ccc(Nc2nc(-c3ccc(Cl)cc3)cs2)cc1 | Vero E6 | % | 99.2 |
| O=C1N=C2SCCN2C(=O)C1Cc1ccc(Cl)cc1 (stereo unspecified) | Vero E6 | % | 95.1 |
| CC(C)N(CC[C@H](c1ccccc1)c1cc(CO)ccc1O)C(C)C [5-hydroxymethyl-tolterodine] | Vero E6 | % | 96.6 |

# context switch: different compound, same cell viability
Qu. // Input: `Cc1nccn1CCC(C(N)=O)(c1ccccc1)c1ccccc1` . Output its cell viability only.
Ans. 95.5

###

Catalogue of cell viability readings, one per entry.
- System: HepG2
- ASSAY COMMENT: cell viability relative to DMSO; higher = less toxic
- STATED CONDITIONS: 72 h; 10 nM
Use % as the unit, but write only the number.

# annotated cases, reported cell viability shown
| MOLECULE | SYSTEM UNDER TEST | cell viability, % |
| --- | --- | --- |
| COC(=O)Nc1ccc(-c2nc(N3CCOCC3)c3cnn(C4CCN(C(=O)OC)CC4)c3n2)cc1 | HepG2 | 107 |
| O=C(O)COc1ccc(OCCNC[C@H](O)COc2ccccc2)cc1 | HepG2 | 104 |
| O=C(O)C[C@H]1CC[C@H](c2ccc(NC(=O)c3nnc(Nc4ccc(F)c(F)c4)o3)cc2)CC1 | HepG2 | 105 |
| COC(=O)Nc1ccc(-c2nc(N3CCOCC3)c3cnn(C4CCN(Cc5cccnc5)CC4)c3n2)cc1 | HepG2 | 111 |

Qu. Quickly give me recorded cell viability for `COc1cccc(C(=O)CCN[C@@H](C)[C@H](O)c2ccccc2)c1`
Ans. 105

Qu. Read the entry O=C(O)CCCO [SODIUM OXYBATE] and write its reported cell viability.
Ans. 105
